# assayed_system: Muscarinic acetylcholine receptor
# experiment_summary: In vitro binding affinity to muscarinic acetylcholine receptor site in rat brain assayed using [3H]oxotremorine-M as the radioligand.
# Assay type: tissue-based
recorded_metric: IC50 (nM)
Report the figure in nM without appending any unit label.

INSERT INTO assay_data (compound, assayed_system, unit_text, measured_number) VALUES
  ('CCc1nc(C2=CCCN(C)C2)no1.O=C(O)C(=O)O', 'Muscarinic acetylcholine receptor', 'nM', 954),
  ('CN1CCC=C(c2nc(CC3CC3)no2)C1.O=C(O)C(=O)O', 'Muscarinic acetylcholine receptor', 'nM', 7.8),
  ('CCCCc1noc(C2=CCCNC2)n1', 'Muscarinic acetylcholine receptor', 'nM', 12.1),
  ('CN1CCC=C(c2nc(C3CC3)no2)C1.O=C(O)C(=O)O', 'Muscarinic acetylcholine receptor', 'nM', 78),
  ('CCCc1noc(C2=CCCN(C)C2)n1.O=C(O)C(=O)O', 'Muscarinic acetylcholine receptor', 'nM', 6.3),
  ('CCCCc1noc(C2CN3CCC2CC3)n1 (stereo unspecified)', 'Muscarinic acetylcholine receptor', 'nM', 58.5),
  ('CCCCCCCc1noc(C2=CCCN(C)C2)n1.O=C(O)C(=O)O', 'Muscarinic acetylcholine receptor', 'nM', 28.3),
  ('COCc1noc(C2=CCCN(C)C2)n1.O=C(O)C(=O)O', 'Muscarinic acetylcholine receptor', 'nM', 43.5),
  ('Cc1noc(C2=CCCN(C)C2)n1.O=C(O)C(=O)O', 'Muscarinic acetylcholine receptor', 'nM', 12.3),
  ('CCCCCCCCc1noc(C2=CCCN(C)C2)n1.O=C(O)C(=O)O', 'Muscarinic acetylcholine receptor', 'nM', 59.9);

Requested read-out: IC50. Entry: "CCOCCc1noc(C2=CCCN(C)C2)n1.O=C(O)C(=O)O"
107

Requested read-out: IC50. Entry: "CN1CCC=C(c2nc(C3CCCC3)no2)C1.O=C(O)C(=O)O"
102

Requested read-out: IC50. Entry: "COCCc1noc(C2=CCCN(C)C2)n1.O=C(O)C(=O)O"
144

Requested read-out: IC50. Entry: "Cc1nc(C2=CCCN(C)C2)no1.O=C(O)C(=O)O"
955

Requested read-out: IC50. Entry: "CCCCc1noc(C2=CCCN(C)C2)n1.O=C(O)C(=O)O"
14.1

Requested read-out: IC50. Entry: CCCCc1noc(C2=CCC3CCC2N3C)n1 (stereo unspecified)
181

Requested read-out: IC50. Entry: "CC(C)c1noc(C2=CCCN(C)C2)n1.O=C(O)C(=O)O"
182

Requested read-out: IC50. Entry: "CN1CCC=C(c2nc(C3CCC3)no2)C1.O=C(O)C(=O)O"
191

Requested read-out: IC50. Entry: "CN1CCC=C(c2nc(C(C)(C)C)no2)C1.O=C(O)C(=O)O"
286

From: ChEMBL document CHEMBL1125247
